System: GD4K-βNA
Test Description: EP activity and kinetic study with specific substrate GD4K-βNA
Type: biochemical
Settings: substrate GD4K-βna
Measurement Label: kcat (s⁻¹)
Answer with a number only, understood to be in s⁻¹.

QUERY: Answer with reported kcat of K63R: Medaka EP-1 protease mutant, substitution K63R (protein) CGQRQVYNSKENNGVPRVVGGVNAEKGAWPWMVSLHWRGRHGCGASLIGRDWLLTAAHCVYGRNTHLQYWSAVLGLHAQSSMNSQEVQIRQVDRIIINKNYNRRTKEADIAMMHLQQPVNFTEWVLPVCLASEDQHFPAGRRCFIAGWGRDAEGGSLPDILQEAEVPLVDQDECQRLLPEYTFTSSMLCAGYPEGGVDSCQGDSGGPLMCLEDARWTLIGVTSFGVGCGRPERPGAYARVSAFTSWIAETRRSSFSDLD
RESULT: 3.5

QUERY: Answer with reported kcat of EP-1: recombinant serine protease domain of Medaka (Oryzias latipes) enteropeptidase-1, wild type, SEQ ID NO: 2 (protein, Oryzias latipes) VVGGVNAEKGAWPWMVSLHWRGRHGCGASLIGRDWLLTAAHCVYGKNTHLQYWSAVLGLHAQSSMNSQEVQIRQVDRIIINKNYNRRTKEADIAMMHLQQPVNFTEWVLPVCLASEDQHFPAGRRCFIAGWGRDAEGGSLPDILQEAEVPLVDQDECQRLLPEYTFTSSMLCAGYPEGGVDSCQGDSGGPLMCLEDARWTLIGVTSFGVGCGRPERPGAYARVSAFTSWIAETRRSSFSDLD
RESULT: 15.7

QUERY: Answer with reported kcat of T105E: Medaka EP-1 protease mutant, substitution T105E (protein) CGQRQVYNSKENNGVPRVVGGVNAEKGAWPWMVSLHWRGRHGCGASLIGRDWLLTAAHCVYGKNTHLQYWSAVLGLHAQSSMNSQEVQIRQVDRIIINKNYNRREKEADIAMMHLQQPVNFTEWVLPVCLASEDQHFPAGRRCFIAGWGRDAEGGSLPDILQEAEVPLVDQDECQRLLPEYTFTSSMLCAGYPEGGVDSCQGDSGGPLMCLEDARWTLIGVTSFGVGCGRPERPGAYARVSAFTSWIAETRRSSFSDLD
RESULT: 4.33

QUERY: Answer with reported kcat of P193E: Medaka EP-1 protease mutant, substitution P193E (protein) CGQRQVYNSKENNGVPRVVGGVNAEKGAWPWMVSLHWRGRHGCGASLIGRDWLLTAAHCVYGKNTHLQYWSAVLGLHAQSSMNSQEVQIRQVDRIIINKNYNRRTKEADIAMMHLQQPVNFTEWVLPVCLASEDQHFPAGRRCFIAGWGRDAEGGSLPDILQEAEVPLVDQDECQRLLPEYTFTSSMLCAGYEEGGVDSCQGDSGGPLMCLEDARWTLIGVTSFGVGCGRPERPGAYARVSAFTSWIAETRRSSFSDLD
RESULT: 4.83
